Biological target: T1, recombinant human CD123-Fc (human, UniProt P26951 19-305, limits assumed)
T1 construct: Panning and sorting antigen; not shown: Fc part
T1 sequence (looked up): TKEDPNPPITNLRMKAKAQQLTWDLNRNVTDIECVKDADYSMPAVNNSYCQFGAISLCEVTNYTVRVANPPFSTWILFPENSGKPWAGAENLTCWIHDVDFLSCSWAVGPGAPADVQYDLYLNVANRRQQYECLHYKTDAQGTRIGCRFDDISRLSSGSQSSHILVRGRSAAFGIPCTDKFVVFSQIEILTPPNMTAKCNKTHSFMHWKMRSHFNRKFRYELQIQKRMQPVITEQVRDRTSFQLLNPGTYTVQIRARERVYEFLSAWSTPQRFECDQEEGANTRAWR
Test: yeast display; 3 rounds of MACS and a FACS sort (top 1%) with CD123-Fc; clone sequenced from the sorted pool, not tested singly

| binder | binding result |
| --- | --- |
| CD123 hScFv binder M12309 (scFv) scFv: EVQLVQSGAEVKKPGATVKISCKVSGYTFTDYYMHWVQQAPGKGLEWIGLVDPEDGETIYAEKFQGRVTITADTSTDTAYMELSSLRSEDTAVYYCATAPLGEVGAAVDYWGQGTLVTVSSGGGGSGGGGSGGGGSHVILTQPPSVSAAPGQEVSISCSGSDANIGTNLVSWYQHVPGTAPKLLIYENSKRPSGIPARFSSSQSGTSATLAISGLQSGDEAIYYCLTWDRTLSGKIFGGGTQLTVLG | binds |
| CD123 hScFv binder M12314 (scFv) scFv: EVQLVQSGAEVKKPGSSVKVSCKASGGTFSSYAISWVRQAPGQGLEWMGGIIPIFGTANYAQKFQGRVTITADESTSTAYMELSSLRSEDTAVYYCARVGCSGGSCYPDYWGQGTLVTVSSGGGGSGGGGSGGGGSEIVLTQSPSSLSASVGDRVTITCQASQDISNYLNWYQQKPGKAPKLLIYDASNLETGVPSRFSGSGSGTDFTFTISSLQPEDIATYYCQQYDNLPLTFGGGTKLDIK | binds |
